# experimentalSystem: ScLsb2
# method: SPOT peptide array binding signal intensity (averaged, normalized) (arbitrary units (background-subtracted, floor 0; scale differs between SH3 domains)); higher = stronger binding of the SH3 domain to the peptide
Rule: SPOT peptide array binding signal intensity under 10 gives no (0), otherwise yes (1).

Below, 5 binders whose answers are already recorded.
INSERT INTO assay_data (binder, categorylabel) VALUES
  ('LKPPIGRPPKFPKSP', 'no (0)'),
  ('GATNNAPTLPKRKNP', 'no (0)'),
  ('LRWRHKFFLPAIAAI', 'no (0)'),
  ('PALPSLPPPPLLNVD', 'no (0)'),
  ('NLPKRKPPKLQGPFS', 'no (0)');

Consider the additional binder presented here.
## Task State whether the measured SPOT peptide array binding signal intensity reaches 10, counting equality as reaching it, for `KRKRRLPVSEDTNTK`
## Result yes (1)

Data provenance is the supplement of paper PMC4466140.
